biological target: Dual specificity tyrosine-phosphorylation-regulated kinase 1A (Rattus norvegicus, UniProt Q63470); experiment: Inhibition of rat recombinant 6xHis-tagged DYRK1A catalytic domain (1 to 502) expressed in Escherichia coli BL21 (DE3) using N-terminal fluorescein coupled KISGRLSPIMTEQ as substrate after 30 mins by HPLC analysis in presence of 1 mM ATP
MEASUREMENT_TYPE: IC50 (µM)

Here is how some compounds turned out for IC50.
{"CHEMICAL_STRUCTURE": "Oc1ccc(-c2c[nH]c3ncc(-c4ccc(O)cc4O)cc23)cc1", "ENDPOINT_UNIT": "µM", "IC50": 0.048}
{"CHEMICAL_STRUCTURE": "Oc1ccc(-c2cnc3[nH]cc(-c4ccc(O)c(O)c4)c3c2)cc1O", "ENDPOINT_UNIT": "µM", "IC50": 0.032}

P. Oc1ccc(-c2cnc3[nH]cc(-c4ccc(O)cc4)c3c2)cc1
Q. Oc1ccc(-c2c[nH]c3ncc(-c4ccc(O)c(O)c4)cc23)cc1
// returns P or Q , whichever has the lower IC50 Write down the label attached to your selection.
Q
(Q: 0.0055 µM, P: 0.043 µM)

Where do these numbers come from? They come from ChEMBL document CHEMBL3102826.
